test.description: in vivo
run.conditions: Swiss Webster, mouse, in vivo, po
readout.kind: Kp
Give bare numbers.

## Task Return reported Kp; argument: CC(=O)c1cc2c3cc(C(C)=O)c(O)cc3n(CCCN(C)C)c2cc1O
## Result 27.9

###

test.description: Caco-2 bidirectional permeability assay
Format: in vitro ADME
run.conditions: human, Caco-2, pH 7.4, Caco-2, direction A-to-B
readout.kind: Papp at 120 min, 5 μM (×10⁻⁶ cm/s)
Give bare numbers, in ×10⁻⁶ cm/s.

{"smiles.repr": "CC(=O)c1cc2c3cc(C(C)=O)c(O)cc3n(CCCN(C)C)c2cc1O", "Papp at 120 min, 5 μM (×10⁻⁶ cm/s)": 17.8}

Here is another molecule to look at.
## Task Return reported Papp at 120 min, 5 μM; argument: CC(=O)c1cc2c3cc(C(C)=O)c(O)cc3n(CCNC(C)C)c2cc1O
## Result 14

###

test.description: Plasma pharmacokinetics after single oral dose
Format: in vivo, Swiss Webster mice
run.conditions: male, Swiss Webster, mouse
readout.kind: half-life (h)
Answers are plain numbers, in h.

## Task Return reported half-life; argument: CC(=O)c1cc2c3cc(C(C)=O)c(O)cc3n(CCCN(C)C)c2cc1O
## Result 4.33

###

Assign Tmax to each entry below.
test.description: Plasma pharmacokinetics after single oral dose
Format: in vivo, Swiss Webster mice
run.conditions: female, Swiss Webster, mouse
Answers without a unit are incomplete; give the number and then its unit.

{"compound": "CC(=O)c1cc2c3cc(C(C)=O)c(O)cc3n(CCCN(C)C)c2cc1O [CBL0174]", "Tmax": "1 h"}

## Task Return reported Tmax; argument: CC(=O)c1cc2c3cc(C(C)=O)c(O)cc3n(CCNC(C)C)c2cc1O [CBL0187]
## Result 1.5 h

###

test.description: Brain accumulation (brain to plasma concentration ratio)
run.conditions: Swiss Webster, mouse, brain, oral
readout.kind: Kp
Give bare numbers.

{"molecule": "CC(=O)c1cc2c3cc(C(C)=O)c(O)cc3n(CCNC(C)C)c2cc1O [CBL0187]", "endpoint.value": 15.9}

Here is another molecule to look at.
## Task Return reported Kp; argument: CC(=O)c1cc2c3cc(C(C)=O)c(O)cc3n(CCCN(C)C)c2cc1O [CBL0174]
## Result 26.9

###

test.description: Caco-2 bidirectional permeability assay
Assay type: in vitro ADME
run.conditions: human, Caco-2, pH 7.4, Caco-2, direction A-to-B
Assign recovery at 120 min, 5 μM to each entry below.

{"compound": "CC(=O)c1cc2c3cc(C(C)=O)c(O)cc3n(CCNC(C)C)c2cc1O [CBL0187]", "recovery at 120 min, 5 μM": "47%"}

Here is another compound to look at.
## Task Return reported recovery at 120 min, 5 μM; argument: CC(=O)c1cc2c3cc(C(C)=O)c(O)cc3n(CCCN(C)C)c2cc1O [CBL0174]
## Result 60%

###

test.description: in vivo
run.conditions: both sexes, mouse, oral, Swiss Webster mice, 10 consecutive days, read-out: Repeated maximum tolerated dose (rMTD)
Assign MTD at 10 days to each entry below.
Numbers only, in mg/kg.

{"smiles.repr": "CC(=O)c1cc2c3cc(C(C)=O)c(O)cc3n(CCCN(C)C)c2cc1O", "endpoint.value": 60}

## Task Return reported MTD at 10 days; argument: CC(=O)c1cc2c3cc(C(C)=O)c(O)cc3n(CCNC(C)C)c2cc1O
## Result 50

###

test.description: Human liver microsome intrinsic clearance (HLM Clint)
Assay type: in vitro ADME
run.conditions: human liver microsomes, 37 °C
readout.kind: microsomal CLint at 1 μM (µL/min/mg)
Give bare numbers, in µL/min/mg.

{"smiles.repr": "CC(=O)c1cc2c3cc(C(C)=O)c(O)cc3n(CCNC(C)C)c2cc1O", "readout.kind": "microsomal CLint at 1 μM", "endpoint.value": 12.4}

Here is another compound to look at.
## Task Return reported microsomal CLint at 1 μM; argument: CC(=O)c1cc2c3cc(C(C)=O)c(O)cc3n(CCCN(C)C)c2cc1O
## Result 4.89

###

test.description: Caco-2 bidirectional permeability assay
Type: in vitro ADME
run.conditions: human, Caco-2, pH 7.4, Caco-2, direction B-to-A
readout.kind: Papp at 120 min, 5 μM
Answers without a unit are incomplete; give the number and then its unit.

{"smiles.repr": "CC(=O)c1cc2c3cc(C(C)=O)c(O)cc3n(CCNC(C)C)c2cc1O", "Papp at 120 min, 5 μM": "21.7 ×10⁻⁶ cm/s"}

Here is another molecule to look at.
## Task Return reported Papp at 120 min, 5 μM; argument: CC(=O)c1cc2c3cc(C(C)=O)c(O)cc3n(CCCN(C)C)c2cc1O
## Result 21.9 ×10⁻⁶ cm/s

###

test.description: Caco-2 bidirectional permeability assay
Type: in vitro ADME
run.conditions: human, Caco-2, pH 7.4, Caco-2, direction B-to-A
readout.kind: recovery at 120 min, 5 μM (%)
Answers are plain numbers, in %.

{"molecule": "CC(=O)c1cc2c3cc(C(C)=O)c(O)cc3n(CCNC(C)C)c2cc1O [CBL0187]", "endpoint.unit": "%", "recovery at 120 min, 5 μM": 64}

Here is another molecule to look at.
## Task Return reported recovery at 120 min, 5 μM; argument: CC(=O)c1cc2c3cc(C(C)=O)c(O)cc3n(CCCN(C)C)c2cc1O [CBL0174]
## Result 86
